- Assay text: probe aNog binding to arrayed compounds – biochemical, biotinylated probe, 635/667 nm fluorescence, primary screen (AID 1115);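 note: probe is biotinylated aNog protein used at 0.15 µg/mL for 1 h at 4 C; z-score combines 667 nm fluorescence of each spot with its signal to noise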
- Study conditions: small-molecule microarray, higher = more signal
Output Y for composite z-score not less than -0.2; output N otherwise.

# Molecule, Class label
measured = [
    ("C=C(/C(=C/C[C@@H](OC(=O)c1ccncc1)c1ccc(CO)o1)c1cc(C(=O)OC)ccc1OC)C(C)C", "Y"),
    ("COc1c(C)cc(-c2cc3c(c(-c4ccccc4)n2)[Si](C(C)C)(C(C)C)O[C@H]3c2ccccc2)cc1C", "N"),
    ("COc1ccc(C(=O)Nc2cccc(CN3C(=O)[C@@]4(O[C@@H](CC(=O)N5Cc6ccccc6C[C@H]5CO)[C@H]([Si](C)(C)c5ccc(OC)cc5)[C@H]4C)c4ccccc43)c2)cc1", "Y"),
    ("CC(C)C(=C=CC[C@H](O)c1ccccc1OCCO)CCO", "Y"),
    ("C=CC[C@@]1(C(N)=O)N=C(c2ccc(OCCCO)cc2)O[C@@H]1c1ccccc1N=[N+]=[N-]", "Y"),
    ("CC(=O)n1cc(C(O)C2C=CC3C(=O)N(c4ccccc4)C(=O)C3N2Nc2ccc(C#N)cc2)c2ccccc21 (stereo not given)", "Y"),
    ("O=c1cccc(-c2ccccc2)o1", "N"),
    ("CCN(CC)c1ccc(N2CC=CC34O[C@@H]5C=CCCOC(=O)C5[C@H]3C(=O)N(CCCO)[C@@H]4C2=O)cc1 (stereo not given in full)", "N"),
    ("C=C[C@H](C)[C@H](OC(=O)Nc1ccc(OC)cc1)c1ccc(O)c2ccccc12", "Y"),
    ("CCOC(=O)C[C@H]1[C@H](OC(=O)c2ccc(C(=O)c3ccccc3)cc2)[C@@H](NC(=O)c2ccc3ccccc3n2)c2cc(OCCCO)ccc2N1C(=O)c1ccc2ccccc2n1", "Y"),
    ("CN(C)CCCN1C(=O)[C@@]2(c3ccc([N+](=O)[O-])cc3)CC(=O)N(C3CCCCC3)[C@@H]2c2ccc(CO)cc21", "Y"),
    ("COCCOC(=O)N1C(=O)[C@@]2(c3cc(C#CCC(C(=O)OC)C(=O)OC)ccc31)[C@H](c1ccccc1OCCO)N1[C@H](c3ccccc3)[C@H](c3ccccc3)OC(=O)[C@H]1[C@@H]2C(=O)Nc1nc2ccccc2s1", "Y"),
    ("Cc1ccc(S[C@]2(C(=O)NCCCN(C)C)CC(=O)N(C(C)C)[C@@H]2c2ccc(CO)cc2I)cc1", "N"),
    ("C[C@H]1C2[C@H](Cc3ccccc3)NC(=O)[C@]23C(=O)N[C@H](Cc2ccccc2)C(=O)N[C@H](Cc2ccccc2)C(=O)NC/C=C/CCC/C=C/C3[C@@H]2O[C@]12C (stereo not given in full)", "Y"),
    ("CC(=O)NCCCC[C@@H]1NC(=O)[C@@H]2C[C@H](C(=O)NCc3ccc(F)cc3)[C@H](c3ccc(O)cc3)N2C1=O", "N"),
]

---

- Tested on: Neuregulin-1 EGF-like domain
- Assay text: small molecules binding NRG1 EGF domain – biochemical, small-molecule microarray, 635 nm fluorescence, primary screen (AID 1081)
- Study conditions: higher = more signal

# Compound, Target or test system, composite z-score
data = [
    ("O=C1OCC=C[C@H]2OC34C=CCN(c5ccc(Cl)cc5)C(=O)[C@H]3N(CCCO)C(=O)[C@@H]4[C@@H]12 (some centres not stated)", "Neuregulin-1 EGF-like domain", 1.41),
    ("CC(C)C(O)C1C=CC2C(=O)N(C)C(=O)C2N1N1CCCCC1 (configuration not stated)", "Neuregulin-1 EGF-like domain", 1.24),
    ("C=CC[C@@]1(C(=O)NCc2ccccc2)N=C(c2ccc(OCCCO)cc2)O[C@@H]1c1ccccc1CN=[N+]=[N-]", "Neuregulin-1 EGF-like domain", 1.2),
    ("COC(=O)C(CC#Cc1ccc2c(c1)[C@]1(C(=O)N2)[C@H](C(=O)N2CCCCCCC2)[C@H]2C(=O)O[C@H](c3ccccc3)[C@H](c3ccccc3)N2[C@@H]1c1ccccc1OCCO)C(=O)OC", "Neuregulin-1 EGF-like domain", 1.38),
    ("C=CC[C@@]1(C(=O)OC)N=C(c2ccc(OCCCO)cc2)O[C@@H]1c1ccccc1CN=[N+]=[N-]", "Neuregulin-1 EGF-like domain", 1.1),
    ("O=P(NCC1(CC2(c3ccccc3)CO2)CC1)(c1ccccc1)c1ccccc1 (configuration not stated)", "Neuregulin-1 EGF-like domain", 0.619),
    ("COc1ccc([Si](C)(C)[C@@H]2[C@@H](CCO)O[C@]3(C(=O)N(Cc4ccc(N5C(=O)c6cccc7cccc5c67)cc4)c4ccccc43)[C@H]2C)cc1", "Neuregulin-1 EGF-like domain", 0.695),
]

---

- Target or test system: Follistatin (Homo sapiens) (UniProt P19883)
- Sequence (P19883 whole entry, looked up): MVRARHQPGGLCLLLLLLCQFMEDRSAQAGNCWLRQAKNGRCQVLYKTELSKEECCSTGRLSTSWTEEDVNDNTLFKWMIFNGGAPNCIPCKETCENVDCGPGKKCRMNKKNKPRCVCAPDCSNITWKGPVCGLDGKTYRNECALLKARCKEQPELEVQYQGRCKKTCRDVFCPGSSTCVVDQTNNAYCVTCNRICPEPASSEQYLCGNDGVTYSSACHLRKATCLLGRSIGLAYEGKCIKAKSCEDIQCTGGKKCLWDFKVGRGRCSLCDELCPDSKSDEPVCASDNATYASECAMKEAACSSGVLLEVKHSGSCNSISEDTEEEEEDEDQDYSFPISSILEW
- Assay text: FST protein binding to printed compounds – biochemical, small-molecule microarray, 635/667 nm fluorescence, primary screen (AID 1132)
- Study conditions: 635 nm fluorescence, higher = more signal

# Test smiles, composite z-score
measured = [
    ("CC(=O)NCCCC[C@@H]1NC(=O)[C@@H]2C[C@H](C(=O)NCCCCCC[N+](C)(C)C)[C@H](c3cccc(OCCO)c3)N2C1=O", 1.39),
    ("C=CC[C@@]1(C(=O)NCCN2CCOCC2)N=C(c2ccc(OCCCO)cc2)O[C@@H]1c1ccccc1CN=[N+]=[N-]", 0.898),
    ("CO[C@H]1O[C@H](CO)[C@@H](OC(=O)Nc2ccc(C(F)(F)F)cc2)[C@H](OC(=O)Nc2ccccc2)[C@@H]1OC(=O)Nc1ccccc1", 1.21),
    ("C=CCOC(=O)[C@@H]1[C@H]2C(=O)O[C@H](c3ccccc3)[C@H](c3ccccc3)N2[C@H](c2ccc(OCCOC(=O)[C@H]3C[C@H]4C(=O)N[C@@H](Cc5ccccc5)C(=O)N4[C@H]3c3ccc(O)cc3)cc2)[C@@]12C(=O)Nc1ccc(I)cc12", 1.36),
    ("COCCOC(=O)N1C(=O)[C@@]2(c3cc(C#Cc4ccc(OC)cc4)ccc31)[C@H](c1ccc(OCCO)cc1)N1[C@H](c3ccccc3)[C@H](c3ccccc3)OC(=O)[C@H]1[C@@H]2C(=O)N1CCc2cc(OC)c(OC)cc2C1", 1.25),
    ("O=C(NCCN1CCOCC1)[C@@H]1c2ccccc2C(=O)N(Cc2cc(F)cc(C(F)(F)F)c2)[C@H]1c1ccc(CO)cc1", 0.687),
]

---

- Target or test system: Follistatin (Homo sapiens) (UniProt P19883)
- Assay text: FST protein binding to printed compounds – biochemical, small-molecule microarray, 635/667 nm fluorescence, primary screen (AID 1132)
- Study conditions: 635 nm fluorescence, higher = more signal
Outcome label depends on composite z-score relative to 0.9: at/above gives class 1, below gives class 0.

# Molecule, Class label
measured = [
    ("COCCOC(=O)N1C(=O)[C@@]2(c3cc(C#CC4=CCCCC4)ccc31)[C@H](C(=O)N1CCN(c3ncccn3)CC1)[C@H]1C(=O)O[C@H](c3ccccc3)[C@H](c3ccccc3)N1[C@@H]2c1ccc(OCCO)cc1", "class 1"),
    ("CCOC(=O)C[C@H]1[C@H](OC(=O)c2ccccc2-c2ccccc2)[C@@H](NC(=O)c2ccc(-c3ccccc3)cc2)c2cc(OCCCO)ccc2N1C(=O)c1ccccc1", "class 0"),
    ("CO[C@H]1O[C@H](CO)[C@@H](OC(=O)Nc2cccc(F)c2)[C@H](OC(=O)Nc2ccccc2-c2ccccc2)[C@@H]1OC(=O)Nc1ccccc1-c1ccccc1", "class 1"),
    ("O=c1cccc(-c2cccc3ccccc23)o1", "class 0"),
    ("C=CCN1Cc2ccccc2C[C@@]2(COC(c3ccc(OCCCO)cc3)=N2)C1=O", "class 1"),
    ("C=CCCN(CC#C[C@H]1Oc2ccccc2S(=O)(=O)N2CCC[C@@H]12)S(=O)(=O)c1ccc(C)cc1", "class 0"),
    ("CN1C(=O)C2C=CC(C(O)C(C)(C)C)N(Nc3ccccc3)C2C1=O (stereo unspecified)", "class 0"),
    ("COCCOC(=O)N1C(=O)[C@@]2(c3cc(C#CCC(C(=O)OC)C(=O)OC)ccc31)[C@H](c1ccc(OCCO)cc1)N1[C@H](c3ccccc3)[C@H](c3ccccc3)OC(=O)[C@H]1[C@@H]2C(=O)NC[C@H](O)c1ccccc1", "class 1"),
    ("CN1C(=O)C2C=CC(C(O)c3ccccc3)N(NC(=O)OC(C)(C)C)C2C1=O (stereo unspecified)", "class 0"),
    ("CCCC[C@H]1C[C@@H]1[C@@H]1N(P(=O)(c2ccccc2)c2ccccc2)[C@](CO)(c2ccccc2)CC12CC2", "class 0"),
    ("C=C(CCCC)C(=O)CC[C@H](OC(C)=O)c1ccc(CO)o1", "class 1"),
    ("COC(=O)[C@@]1(Cc2ccc(F)cc2)[C@H]2c3cc(C(=O)N(C)C)n(CCc4c[nH]c5ccc(OC)cc45)c3C[C@H]2CN1C(=O)c1ccccc1", "class 0"),
    ("C=C(COC)C(=O)CC[C@@H](OC(=O)c1ccccc1-c1ccccc1C(=O)O)c1ccc(CO)o1", "class 1"),
    ("CCN(CC)c1ccc(N2CC=CC34O[C@@H]5/C=C\\CCCOC(=O)C5[C@H]3C(=O)N(CCCO)[C@@H]4C2=O)cc1 (stereo partly specified)", "class 0"),
    ("CCOC(=O)C[C@H]1[C@H](OC(=O)c2ccc(C(=O)c3ccccc3)cc2)[C@@H](NC(=O)c2ccc3ccccc3n2)c2cc(OCCCO)ccc2N1C(=O)c1ccc2ccccc2n1", "class 0"),
    ("Cn1c2c(c3ccccc31)C(=O)C1NC2C=CC1(C)C(=O)OCc1ccccc1 (stereo unspecified)", "class 0"),
    ("CCCNC(=O)[C@@]1(C)c2ccccc2C(=O)N(C(C)C)[C@H]1c1ccc(CO)cc1", "class 0"),
    ("C=CC[C@@]1(C(=O)OC)N=C(c2ccc(OCCCO)cc2)O[C@@H]1c1ccccc1CN=[N+]=[N-]", "class 1"),
    ("CN(C)CCCC[C@@H]1NC(=O)[C@@H]2C[C@H](C(=O)NCCCCCCN)[C@H](c3ccc(O)cc3)N2C1=O", "class 1"),
    ("CC(C)N1C(=O)c2ccccc2[C@](C)(C(=O)NC2CC2)[C@@H]1c1ccc(CO)cc1", "class 1"),
    ("O=C(NCC(O)CO)[C@@]1(Cc2ccccc2)COC(c2ccc(OCCCO)cc2)=N1 (stereo partly specified)", "class 0"),
    ("COCCOC(=O)N1C(=O)[C@@]2(c3ccccc31)[C@H](C(=O)N1CCCCCCC1)[C@H]1C(=O)O[C@H](c3ccccc3)[C@H](c3ccccc3)N1[C@@H]2c1ccccc1OCCO", "class 1"),
    ("CCCC[C@@H]1C[C@H]1[C@@H](NC(=O)c1ccccc1)c1ccccc1", "class 0"),
    ("[N-]=[N+]=NCc1ccccc1C[C@]1(C(=O)NCCN2CCOCC2)N=C(c2ccc(OCCCO)cc2)O[C@H]1c1ccccc1CN=[N+]=[N-]", "class 1"),
    ("COC(=O)c1c(CC[C@@H](CO)NC(=O)Nc2ncn[nH]2)oc(C(=O)Cc2ccccc2)c1C(=O)OC", "class 1"),
    ("Cc1ccc(S[C@]2(C(=O)NCC(C)C)CC(=O)N(Cc3ccccc3)[C@@H]2c2ccc(CO)cc2)cc1", "class 0"),
    ("CC(C)NC(=O)[C@@H]1c2ccccc2C(=O)N(C2CCCCC2)[C@H]1c1ccc(CO)cc1", "class 0"),
    ("COCC1=C([C@H](O)CCc2ccccc2)[C@H](CO)[C@@H]2C(=O)N(Cc3ccccc3)C(=O)[C@@H]2C1", "class 0"),
    ("CN1C(=O)C2C(C1=O)C1C=C(c3ccc(CO)cc3)C2C(C2CC2)N1Cc1cc2c(cc1Br)OCO2 (stereo unspecified)", "class 1"),
    ("C=C(COC)C(=O)CC[C@H](OC(=O)c1cccnc1)c1ccccc1OCCO", "class 1"),
]
